- Assay Text: Calcium tolerance test in mice (weight gain, highest tolerated dose)
- Experimental Parameters: mouse, in vivo, sc, daily subcutaneous, 4 consecutive days, body weight before and at end of 5 day treatment period, read-out: HTD (highest tolerated dose: dose which results in zero weight gain during treatment period)
- From the text: Calcium Tolerance Test In Mice Profound changes in calcium homeostasis strongly affect the weight development of mice. Mice (25-30 g body weight) received daily subcutaneous administrations of the compound for 4 consecutive days. Body weight was registered just before and at the end of a […] treatment period. The "highest tolerated dose" (HTD) is the dose which results in zero weight gain during this treatment period.
Measurement Label: MTD (µg/kg)
A number alone suffices; assume µg/kg.

>>> df
                  compound_structure_string  measurement_label  recorded_value
0  C=C1/C(=C\C=C2/CCC[C@]3(C)C([C@H](C)C/C=C\C(O)(CC)CC)=CC[C@@H]23)C[C@@H](O)C[C@@H]1O                MTD             2.5
1  C=C1/C(=C\C=C2/CCC[C@]3(C)C([C@H](C)CC#CC(O)(CC)CC)=CC[C@@H]23)C[C@@H](O)C[C@@H]1O                MTD               4

Need MTD, item C=C1/C(=C\C=C2/CCC[C@]3(C)C([C@H](C)C/C=C/C(O)(CC)CC)=CC[C@@H]23)C[C@@H](O)C[C@@H]1O
2
